Cited source for all entries: patent US20040192734A1

molecular target: recombinant human β tryptase (Homo sapiens); construct: made in house; host or cells: yeast cells; assay: β-Tryptase Inhibition (chromogenic assay); type: biochemical; settings: chromogenic assay, substrate S2366 0.5 mM, room temperature; Ki calculated from IC50
Sequence (Q15661 31-275): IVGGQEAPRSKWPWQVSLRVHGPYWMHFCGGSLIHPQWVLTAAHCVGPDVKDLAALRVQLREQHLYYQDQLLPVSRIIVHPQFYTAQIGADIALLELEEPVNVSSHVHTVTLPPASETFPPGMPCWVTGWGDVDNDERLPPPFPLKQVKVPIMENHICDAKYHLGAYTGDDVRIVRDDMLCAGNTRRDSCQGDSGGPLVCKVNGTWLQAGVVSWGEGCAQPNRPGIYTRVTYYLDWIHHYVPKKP
pKi: −log10 of the molar value.

{"columns": ["compound", "measurement_target", "pKi"],
 "data": [
  ["NCc1cccc(C2CCN(C(=O)c3cccc(C#Cc4ccccc4F)c3)CC2)c1.O=C(O)C(F)(F)F [Structure (II) where X=F, trifluoroacetate]", "recombinant human β tryptase (Homo sapiens)", 7.01],
  ["NCc1cccc(C2CCN(C(=O)c3cccc(C#Cc4ccccc4)c3)CC2)c1.O=C(O)C(F)(F)F [Structure (II) where X = H, trifluoroacetate]", "recombinant human β tryptase (Homo sapiens)", 6.97],
  ["NCc1cccc(C2CCN(C(=O)c3ccc(C#Cc4ccccc4)o3)CC2)c1.O=C(O)C(F)(F)F [Structure (III) where X = H, trifluoroacetate]", "recombinant human β tryptase (Homo sapiens)", 7.51]
]}
